Please go through the items and note down their TGI.
- Tested on: HCT-116 colon
- test_protocol: NCI tumour cell line growth inhibition, 48 h
Answers are plain numbers, in µM.

molecule: NC(=O)c1cccc2c(N[C@H](CN3CCC3)c3ccc(Cl)c(C(F)(F)F)c3)ncnc12
tgt: HCT-116 colon
TGI (µM): 11.7
--
molecule: COc1cc(OC)cc(Oc2cnc3cc(N)cc(N)c3n2)c1
tgt: HCT-116 colon
TGI (µM): 20.2
--
molecule: CN1CCN(C(=O)[C@@]2(C)CC[C@]3(C)CC[C@]4(C)C(=CC[C@@H]5[C@@]6(C)CCC(=O)NC(C)(C)[C@@H]6CC[C@]54C)[C@@H]3C2)CC1
tgt: HCT-116 colon
TGI (µM): 2.45
--
molecule: CN1CCN(Cc2ccc(NC(=O)c3cncc(C#Cc4c(N)ncc5ccc(C#N)cc45)c3)cc2C(F)(F)F)CC1
tgt: HCT-116 colon
TGI (µM): 1.44
--
molecule: O=c1ccc2ccc(CBr)cc2o1
tgt: HCT-116 colon
TGI (µM): 3.74
--
molecule: Cc1nnc(N)nc1/C=C\c1ccc(Cl)cc1Cl
tgt: HCT-116 colon
TGI (µM): 63.1

Field: TGI. Fill in for each record below.
1. Cc1ccc(-c2nc3nc(-c4ccc(F)cc4)nc(N4CCNCC4)c3o2)cc1
2. O=C([O][Hg][c]1ccccc1)c1ccccc1

Response:
1. 3.32
2. 2.99

###

- System: IGROV1 ovarian
- test_protocol: NCI tumour cell line growth inhibition, 48 h
Returns one of fulfilled or not fulfilled; fulfilled when TGI is >= 4 µM.

compound: CN(C)CN1CSC(=S)N(CN(C)C)C1
class: fulfilled

Request: // inclusive: TGI at least 4 µM? input: O=C1/C(=C/c2ccc(Cl)cc2)Oc2cc(O)ccc21
Response: fulfilled

Request: // inclusive: TGI at least 4 µM? input: O=[N+]([O-])c1ccc(/C=C/c2nc3ccc(Cl)cc3[nH]2)cc1
Response: fulfilled

Request: // inclusive: TGI at least 4 µM? input: CN1CC=C(c2cc(NC(=O)Nc3ccc(Oc4ccnc(NC(=O)C5CC5)c4)c(F)c3)cc(C(F)(F)F)c2)CC1
Response: not fulfilled

Request: // inclusive: TGI at least 4 µM? input: NC(=O)c1cccc2c(N[C@H](CN3CCC3)c3ccc(Cl)c(C(F)(F)F)c3)ncnc12
Response: not fulfilled

Request: // inclusive: TGI at least 4 µM? input: C[C@@]1(CCCCCCCCCCc2ccccc2)C[C@@]2(C)OC(=O)C[C@H]2OO1
Response: fulfilled

Request: // inclusive: TGI at least 4 µM? input: CC1(C)OC[C@H](C(=N)OCc2ccccc2)O1
Response: fulfilled

Request: // inclusive: TGI at least 4 µM? input: CS(=O)(=O)N1CCC(n2c(=O)c(Oc3ccc(F)cc3F)cc3cnc(NC4CCOCC4)nc32)CC1
Response: fulfilled

Request: // inclusive: TGI at least 4 µM? input: COc1ccc2c(c1)N(Cc1ccc(Cl)cc1)CCC2N1CCCC1=O (stereo not given)
Response: fulfilled

Request: // inclusive: TGI at least 4 µM? input: COC(=O)c1cc(NC(=O)c2cc(NC(=O)c3cc([N+](=O)[O-])n(C)c3)cn2C)cn1C
Response: fulfilled

Request: // inclusive: TGI at least 4 µM? input: CC(=O)OCC1OC(N2C(=O)NC(=O)C3C=C4CCCCC4=CC32)CC1OC(C)=O (stereo not given)
Response: fulfilled

Request: // inclusive: TGI at least 4 µM? input: Oc1c(C(Nc2ccccn2)c2cccc(Oc3ccccc3)c2)ccc2cccnc12 (stereo not given)
Response: fulfilled

Request: // inclusive: TGI at least 4 µM? input: COc1cc2c(cc1OC)C(C#N)N(C(=O)c1ccccc1)C=C2OC(=O)c1ccccc1 (stereo not given)
Response: fulfilled

Request: // inclusive: TGI at least 4 µM? input: CCCCCCCCCCNCCSSCc1ccc(Cl)cc1
Response: fulfilled

Request: // inclusive: TGI at least 4 µM? input: Oc1cc(N2CC2)c(O)cc1N1CC1
Response: not fulfilled
